assay overview: NCI Yeast Anticancer Drug Screen. Data for the mec2-1 strain (AID 157)
condition parameters: S. cerevisiae mec2-1 strain, hits give high values; at 50.0 µM unless noted
The panel holds about 79,000 compounds, 15% with a hit somewhere; the sample as a whole holds those more often.
observed property: growth inhibition (%)
Numeric answer only, unit % assumed.

[ask] Entry `c1ccc(NN(Cc2cnccn2)c2ccccc2)cc1` : reported growth inhibition = ?
[reply] -2.65

[ask] Entry `CN(C)C=Nc1ccc2c3c(cccc13)-c1ccccc1-2` : reported growth inhibition = ?
[reply] -24.1

[ask] Entry O=c1ccn(C2OC(COC3CCCCO3)C(OC3CCCCO3)C2OC2CCCCO2)c(=O)n1-c1ccccc1 (stereo unspecified) : reported growth inhibition = ?
[reply] -4.8

[ask] Entry `CNCCCn1c2ccccc2c2c3c(c(-c4ccsc4)cc21)C(=O)NC3=O` : reported growth inhibition = ?
[reply] -8.7

[ask] Entry O=C1c2cc3c(cc2CC12Cc1cc4c(cc1C2=O)CCC4)CCCC3 (stereo unspecified) : reported growth inhibition = ?
[reply] -52.5

[ask] Entry `CCCCCCCCCCCCCCCOc1ccc(OCCCCCCCCCCCC)cc1` : reported growth inhibition = ?
[reply] -6.3

[ask] Entry `CCCCCO.CCCCCO.CCCCCO.CCCCCO.[Ti]` : reported growth inhibition = ?
[reply] -33

[ask] Entry `Cn1cc2c([N+](=O)[O-])cccc2n1` : reported growth inhibition = ?
[reply] 3.75

[ask] Entry Clc1ccccc1C1SCc2nc3ccccc3n21 (stereo unspecified) : reported growth inhibition = ?
[reply] -7.85

[ask] Entry `CC(C)NC(=O)OCc1c(COC(=O)NC(C)C)c(-c2ccc(F)cc2F)n2c1CCC2` : reported growth inhibition = ?
[reply] 4

[ask] Entry `CC(=O)C(CCC#N)(CCC#N)C(C)=O` : reported growth inhibition = ?
[reply] -24.6

---

assay overview: NCI Yeast Anticancer Drug Screen. Data for the rad50 strain (AID 155);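 further: 0% = growth of vehicle-only cultures of the same strain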
condition parameters: S. cerevisiae rad50 strain growth inhibition, hits give high values; at 50.0 µM unless noted
About 79,000 compounds went through this panel and 15% of them were active in at least one assay; those are over-represented in the sample as a whole.
observed property: growth inhibition (%)
Numeric answer only, unit % assumed.

[ask] Entry CC(=O)OC1CCC2(C)C(C1)C(=O)OC1C2CCC2(C)C(C(C)CCCC(C)C)CCC12 (stereo not drawn) : reported growth inhibition = ?
[reply] 27.4

[ask] Entry `Cc1ccc(-c2ccc(C)cc2C(=O)O)c(C(=O)O)c1` : reported growth inhibition = ?
[reply] -21.8

[ask] Entry `O=[N+]([O-])c1ccc(S(=O)(=O)O)cc1` : reported growth inhibition = ?
[reply] 43.6

[ask] Entry `CCOc1ccc(/C=C(\C(=O)c2ccccc2)S(=O)(=O)c2ccc(OC)cc2)cc1OC` : reported growth inhibition = ?
[reply] 17.9

[ask] Entry `CC(=O)Oc1ccc(Cc2ccccc2)cc1` : reported growth inhibition = ?
[reply] 47

[ask] Entry CC(=O)N(C)c1ccc(NC(=O)C2CCCCC2C(=O)O)cc1 (stereo not drawn) : reported growth inhibition = ?
[reply] 6.95

[ask] Entry O=C1CSC(c2ccc(O)cc2)N1c1nncs1 (stereo not drawn) : reported growth inhibition = ?
[reply] 0.4

[ask] Entry COC1OC(COC(=O)c2ccc([N+](=O)[O-])cc2)C2SC12 (stereo not drawn) : reported growth inhibition = ?
[reply] 9.5

[ask] Entry CC1=CCC2C(C)(C)CCCC2(C)C1COC1OC(OCC2C(C)=CCC3C(C)(C)CCCC23C)C2C1=CCC1C(C)(C)CCCC21C (stereo not drawn) : reported growth inhibition = ?
[reply] 90

[ask] Entry `NC(=S)N/N=C\c1cccc(O)c1O` : reported growth inhibition = ?
[reply] 2.9

[ask] Entry `Oc1ccccc1C1CCCC1` : reported growth inhibition = ?
[reply] 5.55

[ask] Entry `Cc1cc(C(=O)O)cc(C)c1N(C)C=O` : reported growth inhibition = ?
[reply] -0.8

[ask] Entry `COc1ccc(C(=O)NNC(=O)c2cccc3ccccc23)cc1` : reported growth inhibition = ?
[reply] 21.8

[ask] Entry `O=C(Nc1nncs1)c1cnccn1` : reported growth inhibition = ?
[reply] -1.85

[ask] Entry `C=C1C(=O)O[C@@H]2C[C@@H](C)[C@@H]3C=CC(=O)[C@@]3(C)[C@@H](OC(=O)CCCC(=O)O[C@H]3[C@@H]4C(=C)C(=O)O[C@@H]4C[C@@H](C)[C@@H]4C=CC(=O)[C@]43C)[C@H]12` : reported growth inhibition = ?
[reply] 50.1

[ask] Entry `C/C=C/C=C/C(=O)OCCCC` : reported growth inhibition = ?
[reply] 6.95

[ask] Entry CCCCCCCCOC(=O)NC1c2ccccc2Oc2c(C)cccc21 (stereo not drawn) : reported growth inhibition = ?
[reply] 1.7

[ask] Entry `C(=Nc1cccnc1)c1ccc(C=Nc2cccnc2)cc1` : reported growth inhibition = ?
[reply] 21.9

[ask] Entry `O=C(CC1=Nc2nnc(-c3nnc4n3C(=O)C(CC(=O)c3cccnc3)=N4)n2C1=O)c1cccnc1` : reported growth inhibition = ?
[reply] -5

[ask] Entry `Cc1cccc(NC(=O)N(C(C)C)C(C)C)c1` : reported growth inhibition = ?
[reply] -16.4

[ask] Entry `CCCCCCCC[Si](c1ccccc1)(c1ccccc1)c1ccccc1` : reported growth inhibition = ?
[reply] 3.15

[ask] Entry `COc1cc(C(=O)O)cc(I)c1OC` : reported growth inhibition = ?
[reply] -3.3

[ask] Entry `COc1cc2c(cc1OCc1ccccc1)C(Cc1cc(Br)sc1Br)=NCC2` : reported growth inhibition = ?
[reply] 57.8

---

assay overview: NCI Yeast Anticancer Drug Screen. Data for the cln2 rad14 strain (AID 165);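 further: 0% = growth equal to vehicle treated cultures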
condition parameters: S. cerevisiae cln2 rad14 strain, hits give high values; at 50.0 µM unless noted
This is part of a sample that, as a whole, favours compounds with a hit. Of some 79,000 tested, about 15% had one in any assay.
Record form. Attribute: growth inhibition. Fill in for each entry.
Numeric answer only, unit % assumed.

[ask] Entry `OC1(C#CC#CC2(O)CCCCC2)CCCCC1` : reported growth inhibition = ?
[reply] 10.1

[ask] Entry `CC[O-].CC[O-].CN(C)c1ccc([O-])cc1.CN(C)c1ccc([O-])cc1.[Ti+4]` : reported growth inhibition = ?
[reply] 20.2

[ask] Entry Clc1ccccc1C1SCc2nc3ccccc3n21 (stereo not given) : reported growth inhibition = ?
[reply] 18.9

[ask] Entry `O=S1(=O)OCCOS(=O)(=O)C1C1c2ccccc2-c2ccccc21` : reported growth inhibition = ?
[reply] 7.6

[ask] Entry `CCCC(=O)n1ccc2ccccc21` : reported growth inhibition = ?
[reply] 13.4

[ask] Entry COC1/C=C/OC2(C)Oc3c(C)c(O)c4c(c3C2=O)C(=O)C([N+](=O)[O-])=C(NC(=O)C(C)=C/C=C\C(C)C(O)C(C)C(O)C(C)C(OC(C)=O)C1C)C4=O (stereo not given) : reported growth inhibition = ?
[reply] 19.6

[ask] Entry `COc1ccccc1OC(=O)c1ccccc1` : reported growth inhibition = ?
[reply] -9.1

[ask] Entry `CCOC(=O)C1CC1` : reported growth inhibition = ?
[reply] 0.05

[ask] Entry `O=C1/C(=C/c2cccc([N+](=O)[O-])c2)Cc2ccccc21` : reported growth inhibition = ?
[reply] 14.1

[ask] Entry `CN(c1ccccc1)c1c(Cl)c(=O)oc2c1ccc1nc(-c3ccccc3)sc12` : reported growth inhibition = ?
[reply] 43.5

[ask] Entry `CCOCNC(=O)NCC(F)(F)C(F)(F)C(F)(F)C(F)(F)C(F)(F)C(F)(F)C(F)(F)F` : reported growth inhibition = ?
[reply] -5.5

[ask] Entry `CO/N=C1/OC(=O)OCC1(c1ccccc1)c1ccccc1` : reported growth inhibition = ?
[reply] 11.1

[ask] Entry `CCOC(Cn1ccc[n+]1CC(=O)c1ccccc1)OCC` : reported growth inhibition = ?
[reply] -21.6

[ask] Entry N/N=C1\CC2C3CC4(OCCO4)C4C3CC2C14 (stereo not given) : reported growth inhibition = ?
[reply] 6.55

[ask] Entry `C=CCOC(=O)c1ccccc1` : reported growth inhibition = ?
[reply] 11.4

[ask] Entry `O=S(=O)(O)c1cc(O)c(S(=O)(=O)O)cc1O` : reported growth inhibition = ?
[reply] -3.6

[ask] Entry CC(C(C#N)C(N)=O)C(C#N)C(N)=O (stereo not given) : reported growth inhibition = ?
[reply] -4.4

[ask] Entry CC(Br)CCCBr (stereo not given) : reported growth inhibition = ?
[reply] -22.4

[ask] Entry `CC1=CC(C)(C)N(C)C(N)=N1` : reported growth inhibition = ?
[reply] -43.2

[ask] Entry `O=C1CCCc2[nH]ccc21` : reported growth inhibition = ?
[reply] 64.6

[ask] Entry Cc1cn(C2CC(ON)C(CO)O2)c(=O)[nH]c1=O (stereo not given) : reported growth inhibition = ?
[reply] 13.9

[ask] Entry `C=C(CC(O)(C(F)(F)F)C(F)(F)F)CC(O)(C(F)(F)F)C(F)(F)F` : reported growth inhibition = ?
[reply] 65.6

[ask] Entry `OCC#CC#CCO` : reported growth inhibition = ?
[reply] -1.05

[ask] Entry `Cc1ncc(CO)c(/C=N\OCc2cccc(Cl)c2)c1O` : reported growth inhibition = ?
[reply] -1.95

[ask] Entry `CC(=O)Nc1ccc2ccccc2c1[N+](=O)[O-]` : reported growth inhibition = ?
[reply] -64.5

[ask] Entry `O=c1[nH]c2ccc(O)cc2o1` : reported growth inhibition = ?
[reply] -10.1

[ask] Entry `CN(C)Cc1ccccc1CC1(O)CCCC1` : reported growth inhibition = ?
[reply] -10.1

[ask] Entry `CCSc1nnc(Sc2c3ccccc3nc3ccccc23)s1` : reported growth inhibition = ?
[reply] 11.4

[ask] Entry `NC(=O)Nc1ccc(/C=C\c2ccnc3ccccc23)cc1` : reported growth inhibition = ?
[reply] -31.9

[ask] Entry COc1cccc(C(c2ccccc2)C(CC(=O)O)CC(=O)O)c1 (stereo not given) : reported growth inhibition = ?
[reply] 4

[ask] Entry `Nn1c(-c2cccc(Cl)c2)nc2ccccc2c1=O` : reported growth inhibition = ?
[reply] 25.7

[ask] Entry `CN(C=O)c1c(F)cc(N=Nc2ccccc2)cc1F` : reported growth inhibition = ?
[reply] -16.1

[ask] Entry `CCc1cccc(C(C)C)c1NC(=O)C(=O)Nn1c(=S)[nH]c2ccccc2c1=O` : reported growth inhibition = ?
[reply] 2.75

[ask] Entry `O=C(NC1c2ccccc2Oc2ccccc21)OCCI` : reported growth inhibition = ?
[reply] 13.3

[ask] Entry N#CC(c1ccccc1)c1ccc(C(c2ccccc2)(c2ccccc2)C(C#N)c2ccccc2)cc1 (stereo not given) : reported growth inhibition = ?
[reply] 19.3

[ask] Entry OC1(C2NCCc3ccccc32)CCN(CCc2ccccc2)CC1 (stereo not given) : reported growth inhibition = ?
[reply] 20.2

[ask] Entry `O=C(NCc1ccccc1)c1n[nH][nH]c1=O` : reported growth inhibition = ?
[reply] -8.15

[ask] Entry `CN(C)C(=S)Oc1ccc(-c2c(-c3ccccc3)oc3ccc4ccccc4c23)cc1` : reported growth inhibition = ?
[reply] 10.8

[ask] Entry `Nc1cc([N+](=O)[O-])ccc1C(=O)O` : reported growth inhibition = ?
[reply] -3.1

[ask] Entry `CCC(C)(C)NC(N)=O` : reported growth inhibition = ?
[reply] -34.2

[ask] Entry `O=CNCC(=O)O` : reported growth inhibition = ?
[reply] -0.7

[ask] Entry CC1(c2nc3ccccc3[nH]2)CCC(C(N)=O)C(C)(C)O1 (stereo not given) : reported growth inhibition = ?
[reply] -2.55

[ask] Entry `CCc1ccc2c(-c3ccccc3)c3c(-c4ccccc4)c4ccccc4c(-c4ccccc4)c3c(-c3ccccc3)c2c1` : reported growth inhibition = ?
[reply] -28.4

[ask] Entry O=C(NC(CSC(c1ccccc1)(c1ccccc1)c1ccccc1)C(=O)O)OC(c1ccccc1)c1ccccc1 (stereo not given) : reported growth inhibition = ?
[reply] 89

[ask] Entry `CN(C)C=Nc1ccc2c3c(cccc13)-c1ccccc1-2` : reported growth inhibition = ?
[reply] -0.35

[ask] Entry `NC(=O)Nc1nc2ccccc2[nH]1` : reported growth inhibition = ?
[reply] -0.3

[ask] Entry CC1(c2ccccc2)CC/C(=C/c2ccccc2)C1=O (stereo not given) : reported growth inhibition = ?
[reply] -43.5

[ask] Entry `CN(C)CCl` : reported growth inhibition = ?
[reply] -4.1

[ask] Entry `CN(/C(=N/C(=S)NCc1ccccc1)SCc1ccccc1)c1ccccc1` : reported growth inhibition = ?
[reply] 9.45

[ask] Entry `O=C1NCCN1/N=C/c1ccc([N+](=O)[O-])o1` : reported growth inhibition = ?
[reply] -29.9
